Tested on: BDF1 mice, P388 leukemia ip, median survival T/C
Experiment: NCI In Vivo Anticancer Drug Screen. Data for tumor model P388 Leukemia (intraperitoneal) in B6D2F1 (BDF1) mice
Settings: endpoint: median survival time; dose: 400.0 mg/kg/injection; schedule: Q04DX003 (ip); vehicle: saline with Tween-80; higher = longer survival
Inconclusive results and toxic doses are left out.
Parameter: T/C

{"columns": ["Molecule", "Result"],
 "data": [
  ["c1ccc(CCCSc2ccccc2)cc1", "109 % of control"]
]}

// T/C lookup, key: CC(C)n1cnc2c(=S)nc[nH]c21 113 % of control

// T/C lookup, key: O=C1c2ccccc2C(=O)N1CC/C=C/c1ccc([N+](=O)[O-])cc1Cl 100 % of control

// T/C lookup, key: COc1ncnc2nc[nH]c12 95 % of control

// T/C lookup, key: CC(C)=CCCC(C)C/C=N\O (centres undefined) 109 % of control

----------
Listed here are compounds together with their documented T/C.
Test system: BDF1 mice, P388 leukemia ip, median survival T/C
Experiment: NCI In Vivo Anticancer Drug Screen. Data for tumor model P388 Leukemia (intraperitoneal) in B6D2F1 (BDF1) mice
Details: endpoint: median survival time; dose: 100.0 mg/kg/injection; schedule: Q01DX005 (ip); vehicle: saline; higher = longer survival
Inconclusive results and toxic doses are left out.

// T/C lookup, key: CN1CCN(C)P1OCC(F)(F)F 87 % of control

// T/C lookup, key: CNCCSS(=O)(=O)CCNC 94 % of control

// T/C lookup, key: CNCCNC 98 % of control

// T/C lookup, key: CCN(CC)CCNC(=O)c1ccc(COc2ccccc2)cc1 111 % of control

----------
System: BDF1 mice, P388 leukemia ip, median survival T/C
Assay: NCI In Vivo Anticancer Drug Screen. Data for tumor model P388 Leukemia (intraperitoneal) in B6D2F1 (BDF1) mice
Conditions: endpoint: median survival time; dose: 100.0 mg/kg/injection; schedule: Q04DX003 (ip); vehicle: gum acacia; higher = longer survival
Toxic doses and inconclusive results are not listed.
Listed here are compounds together with their documented T/C.

Consider the following illustrative entries.
{"columns": ["Smiles Data", "Result"],
 "data": [
  ["CCc1c(Cl)c(C)cc(O)c1Cl", "96 % of control"],
  ["COc1cc(C#N)ccc1O", "92 % of control"],
  ["Cc1c(N=Cc2ccccc2)c(=O)n(-c2ccccc2)n1C", "88 % of control"],
  ["ClC1=C(Cl)C(Cl)(C2(Cl)C(Cl)=C(Cl)C(Cl)=C2Cl)C(Cl)=C1Cl", "108 % of control"]
]}

// T/C lookup, key: C(=N\N=C\c1c[nH]c2ccccc12)/c1c[nH]c2ccccc12 108 % of control

----------
Tested on: BDF1 mice, P388 leukemia ip, median survival T/C
Assay: NCI In Vivo Anticancer Drug Screen. Data for tumor model P388 Leukemia (intraperitoneal) in B6D2F1 (BDF1) mice
Details: endpoint: median survival time; dose: 50.0 mg/kg/injection; schedule: Q04DX003 (ip); vehicle: saline; higher = longer survival
Inconclusive results and toxic doses are left out.
Parameter: T/C

{"columns": ["Compound", "System Tested", "T/C"],
 "data": [
  ["NC(=Nc1ccc(Cl)cc1)/N=C(/N)N1CCN(/C(N)=N/C(N)=Nc2ccc(Cl)cc2)CC1", "BDF1 mice, P388 leukemia ip, median survival T/C", "100 % of control"]
]}

// T/C lookup, key: NNC(=O)C1CC1 100 % of control

// T/C lookup, key: O=c1ccc2c([nH]1)CCC2 95 % of control

// T/C lookup, key: O=C1CCCN1.O=C1CCCN1.[Br][Co][Br] 105 % of control

// T/C lookup, key: CC(CN(C)C)CN1c2ccccc2Sc2ccccc21 (configuration not stated) 120 % of control

// T/C lookup, key: CC1(C)N=C(N)N=C(N)N1c1ccc(CCCCc2ccc(S(=O)(=O)F)cc2)c(Cl)c1 154 % of control

// T/C lookup, key: O=COc1ccc([N+](=O)[O-])cc1 100 % of control

// T/C lookup, key: COc1ccc(NC(=O)CC(C)=O)cc1 102 % of control

// T/C lookup, key: COc1cc(-c2ccc(N=Nc3c(O)ccc4ccccc34)c(OC)c2)ccc1N=Nc1ccc2c(S(=O)(=O)O)cc(S(=O)(=O)O)c(N)c2c1O 104 % of control

// T/C lookup, key: Nc1ccc(C(=O)Nc2ccc(N(CCCl)CCCl)cc2)cc1 216 % of control

// T/C lookup, key: NC(Cc1ccc(O)c(I)c1)C(=O)O (configuration not stated) 110 % of control

// T/C lookup, key: COc1cc2ccc3cc[n+](C)cc3c2cc1OC 95 % of control
